- Organism: Rattus norvegicus
- test.details: Open TG-GATES - Regimen: Daily Repeat
- Assay type: toxicity, organism-based, Sprague-Dawley
- Design: regimen Daily Repeat, gender Male, age 6 weeks
- experimental.conditions: in vivo, po, 300 mg/kg, […], tissue Plasma, route gavage, dose level Middle, time 7 day
property.label: ALP (IU/L)
# number only, unit IU/L dropped from output

[[record]]
molecule = "CC(=O)[C@@]1(O)CC[C@H]2[C@@H]3C=C(Cl)C4=CC(=O)CC[C@]4(C)[C@H]3CC[C@@]21C [CHLORMADINONE]"
property_label = "ALP"
test_value = 1379.4


Entry CC(S)C(=O)NCC(=O)O (centres undefined) [TIOPRONIN] : reported ALP = ?
1316.6

Try this molecule next: CCCCNC(=O)NS(=O)(=O)c1ccc(C)cc1 [TOLBUTAMIDE]
1624

Try this molecule next: O=C(O)c1ccccc1Nc1ccccc1 [FENAMIC ACID]
1312

----------
- Organism: Rattus norvegicus
- test.details: Open TG-GATES - Regimen: Single
- Format: toxicity, organism-based, Sprague-Dawley
- Parameters: regimen Single, gender Male, age 6 weeks
- experimental.conditions: in vivo, po, 0 mg/kg, 3 h, tissue Blood, route gavage, dose level Control
Decide using Ret: a value greater than or equal to 8% is y, a smaller one is n.

[[record]]
compound = "O=C(O)c1ccccc1Nc1ccccc1"
class = "y"

[[record]]
compound = "COc1cc2ncnc(Nc3ccc(F)c(Cl)c3)c2cc1OCCCN1CCOCC1"
class = "y"

[[record]]
compound = "NS(=O)(=O)c1cc(C(=O)O)c(NCc2ccco2)cc1Cl [FUROSEMIDE]"
class = "n"

[[record]]
compound = "CC(S)C(=O)NCC(=O)O (centres undefined)"
class = "n"

[[record]]
compound = "CN(C)CCCN1c2ccccc2Sc2ccc(Cl)cc21"
class = "n"


Hi team, for C=C[C@H]1C[N@@]2CC[C@H]1C[C@@H]2[C@@H](O)c1ccnc2ccc(OC)cc12 , is the recorded Ret at or above 8%?
n

Try this compound next: CN(CCOc1ccc(CC2SC(=O)NC2=O)cc1)c1ccccn1.O=C(O)/C=C\C(=O)O (centres undefined) [ROSIGLITAZONE MALEATE]
y

Try this compound next: CCCCNC(=O)NS(=O)(=O)c1ccc(C)cc1 [TOLBUTAMIDE]
y

Try this compound next: O=c1ccc2ccccc2o1
y

Try this compound next: CN(C/C=C/C#CC(C)(C)C)Cc1cccc2ccccc12
n

Try this compound next: CCN(CC)C(=S)SSC(=S)N(CC)CC
n

Try this compound next: CCO
y

Try this compound next: Nc1ccc(Cc2ccc(N)cc2)cc1
y

----------
- Species on record: Rattus norvegicus
- test.details: Open TG-GATES - Regimen: Daily Repeat
- Assay type: toxicity, organism-based, Sprague-Dawley
- Parameters: regimen Daily Repeat, gender Male, age 6 weeks
- experimental.conditions: in vivo, po, 300 mg/kg, […], tissue Blood, route gavage, dose level Middle, time 28 day
property.label: Mono (%)
# number only, unit % dropped from output

[[record]]
compound = "O=C(O)c1ccccc1Nc1ccccc1"
result_unit = "%"
test_value = 2.6

[[record]]
compound = "CC(=O)[C@@]1(O)CC[C@H]2[C@@H]3C=C(Cl)C4=CC(=O)CC[C@]4(C)[C@H]3CC[C@@]21C"
result_unit = "%"
test_value = 2.2


Entry CCCCNC(=O)NS(=O)(=O)c1ccc(C)cc1 [TOLBUTAMIDE] : reported Mono = ?
2.4

Try this compound next: CC(S)C(=O)NCC(=O)O (centres undefined)
2

----------
- Species: Rattus norvegicus
- test.details: Open TG-GATES - Regimen: Single
- Format: toxicity, organism-based, Sprague-Dawley
- Set-up: regimen Single, gender Male, age 6 weeks
- experimental.conditions: in vivo, po, 0 mg/kg, 6 h, tissue Plasma, route gavage, dose level Control
Readings of GLC for the listed compounds
# number only, unit mg/dL dropped from output

[[record]]
compound = "Nc1ccc(Cc2ccc(N)cc2)cc1"
test_value = 165

[[record]]
compound = "CN(C/C=C/C#CC(C)(C)C)Cc1cccc2ccccc12"
test_value = 197.2


Next up:
Entry CCCCNC(=O)NS(=O)(=O)c1ccc(C)cc1 [TOLBUTAMIDE] : reported GLC = ?
172.6

----------
Readings of Eos for the listed compounds
- Species on record: Rattus norvegicus
- test.details: Open TG-GATES - Regimen: Daily Repeat
- Type: toxicity, organism-based, Sprague-Dawley
- Parameters: regimen Daily Repeat, gender Male, age 6 weeks
- experimental.conditions: in vivo, po, 100 mg/kg, […], tissue Blood, route gavage, dose level Low, time 7 day
Don't forget the unit after the number, please.

[[record]]
compound = "CC(S)C(=O)NCC(=O)O (centres undefined) [TIOPRONIN]"
property_label = "Eos"
test_value = "0.8%"

[[record]]
compound = "CCCCNC(=O)NS(=O)(=O)c1ccc(C)cc1 [TOLBUTAMIDE]"
property_label = "Eos"
test_value = "1%"

[[record]]
compound = "CC(=O)[C@@]1(O)CC[C@H]2[C@@H]3C=C(Cl)C4=CC(=O)CC[C@]4(C)[C@H]3CC[C@@]21C [CHLORMADINONE]"
property_label = "Eos"
test_value = "1%"


Entry O=C(O)c1ccccc1Nc1ccccc1 [FENAMIC ACID] : reported Eos = ?
1%

----------
- Species: Rattus norvegicus
- test.details: Open TG-GATES - Regimen: Daily Repeat
- Assay type: toxicity, organism-based, Sprague-Dawley
- Set-up: regimen Daily Repeat, gender Male, age 6 weeks
- experimental.conditions: in vivo, po, 1000 mg/kg, […], tissue Kidney, route gavage, dose level High, time 14 day
Readings of KIDNEY_R for the listed compounds
# number only, unit g dropped from output

Solved cases below.
[[record]]
compound = "CC(=O)[C@@]1(O)CC[C@H]2[C@@H]3C=C(Cl)C4=CC(=O)CC[C@]4(C)[C@H]3CC[C@@]21C"
test_value = 1.1

[[record]]
compound = "CC(S)C(=O)NCC(=O)O (centres undefined)"
test_value = 1.3

[[record]]
compound = "O=C(O)c1ccccc1Nc1ccccc1"
test_value = 1.8


Entry CCCCNC(=O)NS(=O)(=O)c1ccc(C)cc1 [TOLBUTAMIDE] : reported KIDNEY_R = ?
1.2

----------
- Species: Rattus norvegicus
- test.details: Open TG-GATES - Regimen: Single
- Assay type: toxicity, organism-based, Sprague-Dawley
- Set-up: regimen Single, gender Male, age 6 weeks
- experimental.conditions: in vivo, po, 0 mg/kg, 6 h, tissue Plasma, route gavage, dose level Control
Decide using LDH: a value greater than or equal to 100 IU/L is t, a smaller one is f.

Worked examples follow.
[[record]]
molecule = "CCCCNC(=O)NS(=O)(=O)c1ccc(C)cc1 [TOLBUTAMIDE]"
class = "f"

[[record]]
molecule = "CCN(CC)C(=S)SSC(=S)N(CC)CC"
class = "t"

[[record]]
molecule = "COc1cc2ncnc(Nc3ccc(F)c(Cl)c3)c2cc1OCCCN1CCOCC1"
class = "t"

[[record]]
molecule = "O=C(O)c1ccccc1Nc1ccccc1"
class = "f"

[[record]]
molecule = "O=c1ccc2ccccc2o1"
class = "f"


Now take the following molecule into account.
Hi team, for CC(=O)[C@@]1(O)CC[C@H]2[C@@H]3C=C(Cl)C4=CC(=O)CC[C@]4(C)[C@H]3CC[C@@]21C , is the recorded LDH at or above 100 IU/L?
t

----------
- Species: Rattus norvegicus
- test.details: Open TG-GATES - Regimen: Daily Repeat
- Assay type: toxicity, organism-based, Sprague-Dawley
- Design: regimen Daily Repeat, gender Male, age 6 weeks
- experimental.conditions: in vivo, po, 0 mg/kg, 72 h, tissue Blood, route gavage, dose level Control, time 3 day
property.label: Eos (%)
# number only, unit % dropped from output

Solved cases below.
[[record]]
compound = "O=c1ccc2ccccc2o1"
property_label = "Eos"
result_unit = "%"
test_value = 1.2

[[record]]
compound = "Nc1ccc(Cc2ccc(N)cc2)cc1"
property_label = "Eos"
result_unit = "%"
test_value = 1


Entry CCN(CC)C(=S)SSC(=S)N(CC)CC : reported Eos = ?
0.8

Try this compound next: CC(S)C(=O)NCC(=O)O (stereo not given)
1

Try this compound next: NS(=O)(=O)c1cc(C(=O)O)c(NCc2ccco2)cc1Cl [FUROSEMIDE]
1

Try this compound next: CCCCNC(=O)NS(=O)(=O)c1ccc(C)cc1 [TOLBUTAMIDE]
1

Try this compound next: O=C(O)c1ccccc1Nc1ccccc1
1.2

Try this compound next: CN(CCOc1ccc(CC2SC(=O)NC2=O)cc1)c1ccccn1.O=C(O)/C=C\C(=O)O (stereo not given) [ROSIGLITAZONE MALEATE]
1.2

Try this compound next: CC(=O)[C@@]1(O)CC[C@H]2[C@@H]3C=C(Cl)C4=CC(=O)CC[C@]4(C)[C@H]3CC[C@@]21C
1

Try this compound next: COc1ccc([C@@H]2Sc3ccccc3N(CCN(C)C)C(=O)[C@@H]2OC(C)=O)cc1
1
